# Test Name: Half life was determined in the presence of Fe(III) Spectrophotometrically
# Format: ADME
Readout Type: half-life (h)

> print(dat)
                                      mol  readout.type  units.label   val
1  O=C1CN(CCN2CC(=O)Oc3ccccc32)c2ccccc2O1     half-life            h  1.97

----------
Recorded half-life for the following compounds
# Test Name: Half life was determined at pH 7.5 in the presence of Fe(III) Half life was determined Spectrophotometrically
Readout Type: half-life (h)

> print(dat)
                                        mol  readout.type   val
1  CC(C)OC(=O)CN(CCN(CC(=O)OC(C)C)Cc1ccccc1O)Cc1ccccc1O     half-life  2.15
2  CCOC(=O)CN(CCN(CC(=O)OCC)Cc1ccccc1O)Cc1ccccc1O     half-life  1.01

----------
# System: Rattus norvegicus
# Test Name: Percent change in iron levels was determined in feces using iron overload rat model where the route of administration is Peroral
# Assay type: functional
Readout Type: Iron change (%)

> print(dat)
                                   molecule  val
1  COC(=O)CN(CCN(CC(=O)OC)Cc1ccccc1O)Cc1ccccc1O  369
2  O=C(O)CN(CCN(CC(=O)O)Cc1ccccc1O)Cc1ccccc1O   53
3  COC(=O)C(NCCNC(C(=O)OC)c1ccccc1O)c1ccccc1O (centres undefined)   89
4  CCCCCOC(=O)CN(CCN(CC(=O)OCCCCC)Cc1ccccc1O)Cc1ccccc1O  268

----------
# Test Name: Half life was determined titrimetrically at pH 7.5 in the presence of Cu(II) Half life was determined
Readout Type: half-life (h)

> print(dat)
                                        mol  readout.type  units.label   val
1  COC(=O)CN(CCN(CC(=O)OC)Cc1ccccc1O)Cc1ccccc1O     half-life            h  2.25

----------
# System: Rattus norvegicus
# Test Name: Percent change in iron levels was determined in urine using iron overload rat model where the route of administration is Intraperitoneal
# Format: functional
Readout Type: Iron change (%)

> print(dat)
                                   compound  readout.type  val
1  COC(=O)C(NCCNC(C(=O)OC)c1ccccc1O)c1ccccc1O (stereo not given)   Iron change  188
2  O=C(O)CN(CCN(CC(=O)O)Cc1ccccc1O)Cc1ccccc1O   Iron change  196
3  O=C(O)C(NCCNC(C(=O)O)c1ccccc1O)c1ccccc1O (stereo not given)   Iron change  484
4  COC(=O)CN(CCN(CC(=O)OC)Cc1ccccc1O)Cc1ccccc1O   Iron change  694
5  CCCCCOC(=O)CN(CCN(CC(=O)OCCCCC)Cc1ccccc1O)Cc1ccccc1O   Iron change  215

----------
# Test Name: Half life was determined in the presence of Fe(III) Titrimetrically
# Assay type: ADME
Readout Type: half-life

> print(dat)
                                      mol     val
1  O=C1CN(CCN2CC(=O)Oc3ccccc32)c2ccccc2O1  1.19 h

----------
# Test Name: Compound was evaluated for lethal dose after intraperitoneal administration using iron overload rat model
# Assay type: toxicity, organism-based
# Condition Notes: in vivo, ip
Readout Type: LD50

> print(dat)
                                   compound          val
1  O=C(O)C(NCCNC(C(=O)O)c1ccccc1O)c1ccccc1O (stereo unspecified)    175 mg/kg
2  COC(=O)C(NCCNC(C(=O)OC)c1ccccc1O)c1ccccc1O (stereo unspecified)  ≥ 800 mg/kg
3  CCOC(=O)C(NCCNC(C(=O)OCC)c1ccccc1O)c1ccccc1O (stereo unspecified)  ≥ 800 mg/kg
4  O=C(O)CN(CCN(CC(=O)O)Cc1ccccc1O)Cc1ccccc1O  ≥ 800 mg/kg
5  COC(=O)CN(CCN(CC(=O)OC)Cc1ccccc1O)Cc1ccccc1O  ≥ 800 mg/kg
6  O=C(O)CN(Cc1ccccc1O)CC(O)CN(CC(=O)O)Cc1ccccc1O  ≥ 800 mg/kg

----------
# Test Name: Half life was determined titrimetrically at pH 7.5 in the presence of Fe(III)Half life was determined
Readout Type: half-life

> print(dat)
                                        mol  readout.type       val
1  COC(=O)CN(CCN(CC(=O)OC)Cc1ccccc1O)Cc1ccccc1O     half-life  19.7 min
